Data origin, for the record: ChEMBL document CHEMBL5029181

# assaySummary: Permeability of the compound from basolateral to apical side in human Caco-2 cells
# Format: ADME, cell-based
# measurementParameters: read-out: permeability
reportedMetric: Papp B→A (×10⁻⁶ cm/s)
Dear colleague, please return just the value in ×10⁻⁶ cm/s, with no unit written.

GET /values?readout=Papp B→A&item= COc1nc(-c2ncccc2C)cc(-c2ccc(F)cc2)c1C#N
0.769

----------
# half-life per record follows
# assaySummary: Half life in mouse at 10 mg/kg, ip
# Type: ADME, organism-based
# measurementParameters: in vivo
Express it in h; write the number only.

>>> df
                                 smilesstr  reportedmetric  reportedresult
0  COc1nc(-c2ncccc2C)cc(-c2ccc(F)cc2)c1C#N       half-life            5.96

State the recorded half-life for this entry: COc1nc(-c2ncccc2C)cc(-c2ccc(N)cc2)c1C#N
1.13

----------
# assaySummary: AUClast in mouse at 10 mg/kg, ip
# Assay type: ADME, organism-based
# Parameters: time 0 - last, route intraperitoneal, dose 10 mg/kg
# measurementParameters: in vivo
reportedMetric: AUC(0-t)
Record the result as a number with its unit.

In [3]: df
Out[3]:
                                 smilesstr  reportedmetric  reportedresult
0  COc1nc(-c2ncccc2C)cc(-c2ccc(F)cc2)c1C#N        AUC(0-t)      42 ng·h/mL

Now look at this entry.
What value of measured AUC(0-t) is listed for COc1nc(-c2ncccc2C)cc(-c2ccc(N)cc2)c1C#N ?
1080 ng·h/mL

----------
Read-out record for UniProtKB Q9Y6N5: IC50
Sequence (Q9Y6N5 whole entry): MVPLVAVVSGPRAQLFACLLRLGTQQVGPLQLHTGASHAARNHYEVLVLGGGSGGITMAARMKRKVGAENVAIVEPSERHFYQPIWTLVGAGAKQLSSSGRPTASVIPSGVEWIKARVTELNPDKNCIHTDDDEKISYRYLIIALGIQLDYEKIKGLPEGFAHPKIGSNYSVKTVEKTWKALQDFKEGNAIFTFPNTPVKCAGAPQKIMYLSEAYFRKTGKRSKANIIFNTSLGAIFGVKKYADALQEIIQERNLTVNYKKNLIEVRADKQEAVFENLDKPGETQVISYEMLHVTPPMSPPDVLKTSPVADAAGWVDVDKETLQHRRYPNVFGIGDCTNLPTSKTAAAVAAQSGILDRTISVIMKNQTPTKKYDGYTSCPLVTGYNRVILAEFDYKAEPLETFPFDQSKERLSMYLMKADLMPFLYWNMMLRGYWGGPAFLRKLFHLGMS
// note: answer is a bare numeric in nM

In [3]: df
Out[3]:
                                  smilesstr  reportedmetric  reportedresult
0       COc1nc(-c2ccccc2)cc(-c2ccccc2)c1C#N            IC50              53
1     COc1nc(C(C)(C)C)cc(-c2ccc(F)cc2)c1C#N            IC50             153
2  COc1ccccc1-c1cc(-c2ccc(F)cc2)c(C#N)c(OC)n1            IC50              75
3    COc1nc(-c2ccccn2)cc(-c2ccc(F)cc2)c1C#N            IC50              14
4  C=CCOc1nc(-c2ccccn2)cc(-c2ccc(F)cc2)c1C#N            IC50             5.5
5  COc1cccc(-c2cc(-c3ccc(F)cc3)c(C#N)c(OC)n2)c1            IC50             108

Look up IC50 for this molecule: COc1nc(-c2ccccn2)cc(C(C)(C)C)c1C#N
850

Try the molecule COc1nc(-c2ccccc2)cc(-c2ccc(F)cc2)c1C#N
25

----------
# assaySummary: Permeability of the compound from apical to basolateral side in human Caco-2 cells
# Format: ADME, cell-based
# measurementParameters: read-out: permeability
reportedMetric: Papp A→B (×10⁻⁶ cm/s)
Provide the reading as a plain figure in ×10⁻⁶ cm/s.

Fill in: Papp A→B of COc1nc(-c2ncccc2C)cc(-c2ccc(F)cc2)c1C#N is ___
0.455
